System: 388556-164-R-J1-PDC complex spheroid viability
Measurement Notes: Anticancer human tumor 388556-164-R-J1-PDC patient-derived colon adenocarcinoma cell line growth inhibition [RAS]
Condition Set: second compound 0.0949 µM; first compound 10 µM; active compounds read low
Measured Attribute: viability, T/C (%)
Respond numerically; units are % and should not be typed.

# annotated cases, reported viability, T/C shown
Prompt line: Fill blank: measured viability, T/C of the compound CCC(CC)c1cc(NC2CCC(N)C2)n2nccc2n1 (centres undefined) + CCn1c(-c2cc(N3CCN(C)CC3)cnc2C(C)OC)c2c3cc(ccc31)-c1csc(n1)CC(NC(=O)C1CC1C)C(=O)N1CCCC(N1)C(=O)OCC(C)(C)C2 is ____.
Response line: 11.8

Prompt line: If you can, please state the reported viability, T/C value of CC1(O)CCCC1n1c(=O)c(C(F)F)cc2cnc(NC3CCN(S(C)(=O)=O)CC3)nc21 (centres undefined) + CCn1c(-c2cc(N3CCN(C)CC3)cnc2C(C)OC)c2c3cc(ccc31)-c1csc(n1)CC(NC(=O)C1CC1C)C(=O)N1CCCC(N1)C(=O)OCC(C)(C)C2 .
Response line: 35.1

Prompt line: State the recorded viability, T/C for this entry: Cc1nc(N2CCC3(CC2)COC(C)C3N)c(CO)nc1Sc1ccnc(N)c1Cl (centres undefined) + CCn1c(-c2cccnc2C(C)OC)c2c3cc(ccc31)N1CCOC(CC(NC(=O)C(C(C)C)N(C)C(=O)C3(F)CCN(C(=O)C#CC(C)(C)N(C)C)CC3)C(=O)N3CCCC(N3)C(=O)OCC(C)(C)C2)C1
Response line: 40.5

Now look at this one.
Prompt line: Give its viability, T/C value. Item: Cc1nc(N2CCC3(CC2)COC(C)C3N)c(CO)nc1Sc1ccnc(N)c1Cl (centres undefined) + CCn1c(-c2cc(N3CCN(C)CC3)cnc2C(C)OC)c2c3cc(ccc31)-c1csc(n1)CC(NC(=O)C1CC1C)C(=O)N1CCCC(N1)C(=O)OCC(C)(C)C2
Response line: 22.8

====

Tested on: 388556-164-R-J1-PDC complex spheroid viability
Measurement Notes: Anticancer human tumor 388556-164-R-J1-PDC cell line growth inhibition [RAS];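 note: spheroids exposed to compound for 7 days before readout; 100% = DMSO vehicle control luminescence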
Condition Set: second compound 10 µM; first compound 1 µM; active compounds read low
Measured Attribute: viability, T/C (%)
// note: answer is a bare numeric in %

Prompt line: Item under review: CCN1CCN(Cc2ccc(Nc3ncc(F)c(-c4cc(F)c5nc(C)n(C(C)C)c5c4)n3)nc2)CC1 + C#Cc1c(F)ccc2cc(O)cc(-c3ncc4c(N5CC6CCC(C5)N6)nc(OCC56CCCN5CC(F)C6)nc4c3F)c12 . Reported viability, T/C?
Response line: 37.4

Prompt line: Record request: viability, T/C value, item O=C(c1ccc(F)c(F)c1Nc1ccc(I)cc1F)N1CC(O)([C@@H]2CCCCN2)C1 + C#Cc1c(F)ccc2cc(O)cc(-c3ncc4c(N5CC6CCC(C5)N6)nc(OCC56CCCN5CC(F)C6)nc4c3F)c12
Response line: 17.1

Prompt line: Find the recorded viability, T/C belonging to C=CC(=O)Nc1cc(Nc2nccc(-c3cn(C)c4ccccc34)n2)c(OC)cc1N(C)CCN(C)C + C#Cc1c(F)ccc2cc(O)cc(-c3ncc4c(N5CC6CCC(C5)N6)nc(OCC56CCCN5CC(F)C6)nc4c3F)c12 and report it.
Response line: 24.6

====

Test system: 388556-164-R-J1-PDC complex spheroid viability
Measurement Notes: Anticancer human tumor 388556-164-R-J1-PDC cell line growth inhibition [RAS];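 note: spheroids exposed to compound for 7 days before readout; 100% = DMSO vehicle control luminescence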
Condition Set: second compound 0.1 µM; first compound 0.0949 µM; active compounds read low
Measured Attribute: viability, T/C (%)
I only need the number, in %, no unit after it.

Prompt line: Report viability, T/C for CC1(C)CCC(Nc2ncc(C(F)(F)F)c(-c3c[nH]c4c(P(C)(C)=O)c(C#N)ccc34)n2)CN1 (centres undefined) + C#Cc1c(F)ccc2cc(O)cc(-c3ncc4c(N5CC6CCC(C5)N6)nc(OCC56CCCN5CC(F)C6)nc4c3F)c12 tested on 388556-164-R-J1-PDC complex spheroid viability.
Response line: 116

Prompt line: Record lookup: for 388556-164-R-J1-PDC complex spheroid viability, what viability, T/C belongs to CCc1c2c(nc3ccc(O)cc13)-c1cc3c(c(=O)n1C2)COC(=O)[C@]3(O)CC + C#Cc1c(F)ccc2cc(O)cc(-c3ncc4c(N5CC6CCC(C5)N6)nc(OCC56CCCN5CC(F)C6)nc4c3F)c12 ?
Response line: 52.6

Prompt line: Quick check: viability, T/C on 388556-164-R-J1-PDC complex spheroid viability, item CCc1c2c(nc3ccc(O)cc13)-c1cc3c(c(=O)n1C2)COC(=O)[C@]3(O)CC + C=CC(=O)N1CCN(c2nc(OCC3CCCN3C)nc3c(F)c(-c4nc(N)cc(C)c4C(F)(F)F)c(Cl)cc23)C(C)C1 ?
Response line: 51

More entries:
Prompt line: Param readout= viability, T/C; system= 388556-164-R-J1-PDC complex spheroid viability; entry= CC1(C)CCC(Nc2ncc(C(F)(F)F)c(-c3c[nH]c4c(P(C)(C)=O)c(C#N)ccc34)n2)CN1 (centres undefined) + C=CC(=O)N1CCN(c2nc(OCC3CCCN3C)nc3c(F)c(-c4nc(N)cc(C)c4C(F)(F)F)c(Cl)cc23)C(C)C1 ; returns value.
Response line: 99.6

====

Tested on: 388556-164-R-J1-PDC complex spheroid viability
Measurement Notes: Anticancer human tumor 388556-164-R-J1-PDC cell line growth inhibition [RAS];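 note: spheroids exposed to compound for 7 days before readout; 100% = DMSO vehicle control luminescence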
Condition Set: compound 10 µM; active compounds read low
Measured Attribute: viability, T/C

Prompt line: Sample C#Cc1c(F)ccc2cc(O)cc(-c3ncc4c(N5CC6CCC(C5)N6)nc(OCC56CCCN5CC(F)C6)nc4c3F)c12 (stereo not drawn) — what was its viability, T/C?
Response line: 70.4% [middle of 8 runs]

Prompt line: Request the reported viability, T/C associated with CCC(CC)c1cc(NC2CCC(N)C2)n2nccc2n1 (stereo not drawn)
Response line: 32% [middle of 4 runs]

Prompt line: # get_value(readout='viability, T/C', item= NC1c2ccccc2OC12CCN(c1cnc3c(N4CCCc5ncccc54)n[nH]c3n1)CC2 (stereo not drawn) )
Response line: 37.6% [middle of 4 runs]

Prompt line: State the recorded viability, T/C for this entry: CC(=O)OC12COC1CC(O)C1(C)C(=O)C(O)C3=C(C)C(OC(=O)C(O)C(NC(=O)OC(C)(C)C)c4ccccc4)CC(O)(C(OC(=O)c4ccccc4)C21)C3(C)C (stereo not drawn)
Response line: 75.2% [middle of 4 runs]

Prompt line: Request the reported viability, T/C associated with Cc1nc(N2CCC3(CC2)COC(C)C3N)c(CO)nc1Sc1ccnc(N)c1Cl (stereo not drawn)
Response line: 46.1% [middle of 4 runs]

Next:
Prompt line: Look up viability, T/C: CC(Nc1ccc2c(c1)OCCn1cc(N3C(=O)OCC3C(F)F)nc1-2)C(N)=O (stereo not drawn)
Response line: 67.4% [middle of 4 runs]

Prompt line: If you can, please state the reported viability, T/C value of C[C@@H](NC(=O)c1ncnc(N)c1Cl)c1ncc(C(=O)Nc2cc(C(F)(F)F)c(Cl)cn2)s1 .
Response line: 97.4% [middle of 4 runs]

Prompt line: Look up viability, T/C for this compound: CC(C)NCC(C(=O)N1CCN(c2ncnc3c2C(C)CC3O)CC1)c1ccc(Cl)cc1 (stereo not drawn)
Response line: 103% [middle of 4 runs]

====

System: 388556-164-R-J1-PDC complex spheroid viability
Measurement Notes: Anticancer human tumor 388556-164-R-J1-PDC cell line growth inhibition [RAS];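 note: spheroids exposed to compound for 7 days before readout; 100% = DMSO vehicle control luminescence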
Condition Set: second compound 0.00949 µM; first compound 1 µM; active compounds read low
Measured viability, T/C accompanies every entry in the list below.
// units = %; emit number, no label

Some compounds with recorded viability, T/C:
Prompt line: Query (compound): CC(=O)OC12COC1CC(O)C1(C)C(=O)C(O)C3=C(C)C(OC(=O)C(O)C(NC(=O)OC(C)(C)C)c4ccccc4)CC(O)(C(OC(=O)c4ccccc4)C21)C3(C)C (stereo not drawn) + CCn1c(-c2cccnc2C(C)OC)c2c3cc(ccc31)N1CCOC(CC(NC(=O)C(C(C)C)N(C)C(=O)C3(F)CCN(C(=O)C#CC(C)(C)N(C)C)CC3)C(=O)N3CCCC(N3)C(=O)OCC(C)(C)C2)C1 ; field requested: viability, T/C
Response line: 75

Prompt line: Returns the measured viability, T/C for the input compound. Input: CC(Nc1ccc2c(c1)OCCn1cc(N3C(=O)OCC3C(F)F)nc1-2)C(N)=O (stereo not drawn) + CCn1c(-c2cccnc2C(C)OC)c2c3cc(ccc31)N1CCOC(CC(NC(=O)C(C(C)C)N(C)C(=O)C3(F)CCN(C(=O)C#CC(C)(C)N(C)C)CC3)C(=O)N3CCCC(N3)C(=O)OCC(C)(C)C2)C1
Response line: 69

Prompt line: // lookup viability, T/C for C=CC(=O)N1CCN(c2nc(OCC3CCCN3C)nc3c(F)c(-c4nc(N)cc(C)c4C(F)(F)F)c(Cl)cc23)C(C)C1 (stereo not drawn) + CCn1c(-c2cc(N3CCN(C)CC3)cnc2C(C)OC)c2c3cc(ccc31)-c1csc(n1)CC(NC(=O)C1CC1C)C(=O)N1CCCC(N1)C(=O)OCC(C)(C)C2
Response line: 65.9

Prompt line: # lookup: viability, T/C of CC1(O)CCCC1n1c(=O)c(C(F)F)cc2cnc(NC3CCN(S(C)(=O)=O)CC3)nc21 (stereo not drawn) + CCn1c(-c2cc(N3CCN(C)CC3)cnc2C(C)OC)c2c3cc(ccc31)-c1csc(n1)CC(NC(=O)C1CC1C)C(=O)N1CCCC(N1)C(=O)OCC(C)(C)C2
Response line: 77.9

Prompt line: Record request: viability, T/C value, item O=C(c1ccc(F)c(F)c1Nc1ccc(I)cc1F)N1CC(O)([C@@H]2CCCCN2)C1 + CCn1c(-c2cccnc2C(C)OC)c2c3cc(ccc31)N1CCOC(CC(NC(=O)C(C(C)C)N(C)C(=O)C3(F)CCN(C(=O)C#CC(C)(C)N(C)C)CC3)C(=O)N3CCCC(N3)C(=O)OCC(C)(C)C2)C1
Response line: 22.6

Prompt line: // returns reported viability, T/C for input NC1c2ccccc2OC12CCN(c1cnc3c(N4CCCc5ncccc54)n[nH]c3n1)CC2 (stereo not drawn) + CCn1c(-c2cccnc2C(C)OC)c2c3cc(ccc31)N1CCOC(CC(NC(=O)C(C(C)C)N(C)C(=O)C3(F)CCN(C(=O)C#CC(C)(C)N(C)C)CC3)C(=O)N3CCCC(N3)C(=O)OCC(C)(C)C2)C1
Response line: 41.5

Prompt line: Reported viability, T/C, compound CC(C)NCC(C(=O)N1CCN(c2ncnc3c2C(C)CC3O)CC1)c1ccc(Cl)cc1 (stereo not drawn) + CCn1c(-c2cc(N3CCN(C)CC3)cnc2C(C)OC)c2c3cc(ccc31)-c1csc(n1)CC(NC(=O)C1CC1C)C(=O)N1CCCC(N1)C(=O)OCC(C)(C)C2 : ____
Response line: 73.9

Others:
Prompt line: Given the entry CC(Nc1ccc2c(c1)OCCn1cc(N3C(=O)OCC3C(F)F)nc1-2)C(N)=O (stereo not drawn) + CCn1c(-c2cc(N3CCN(C)CC3)cnc2C(C)OC)c2c3cc(ccc31)-c1csc(n1)CC(NC(=O)C1CC1C)C(=O)N1CCCC(N1)C(=O)OCC(C)(C)C2 , report its measured viability, T/C.
Response line: 52.4
